Test system: Renal cancer cell line
Test summary: Cell growth inhibition of human Renal cancer cells incubated for 48 hrs by SRB assay
Type: functional
Task for the reader: assign each of the following molecules its reported GI50.
Value expressed in nM; do not type the unit.

Enquiry: # query: GI50 of entry Cc1cc2c(cc1O)/C(=C\c1cc(C(C)(C)C)cc(C=O)c1O)C(=O)N2
Return: 2570

Enquiry: Value lookup for GI50; key = COc1ccc2c(c1)/C(=C\c1ccc3ccc4ccc(/C=C5/C(=O)N(C)c6ccc(OC)cc65)nc4c3n1)C(=O)N2C
Return: 2340

Enquiry: Consider the molecule shown here: CC(C)(C)c1cc(/C=C2/C(=O)Nc3cccc(F)c32)c(O)c(/C=C2/C(=O)Nc3cccc(F)c32)c1 What is its recorded GI50?
Return: 2450

Enquiry: Need GI50, item CC(C)(C)c1cc(/C=C2/C(=O)Nc3cc(Cl)ccc32)c(O)c(/C=C2/C(=O)Nc3cc(Cl)ccc32)c1
Return: 2690

Enquiry: For the molecule CC(C)(C)c1cc(/C=C2/C(=O)Nc3ccc(F)cc32)c(O)c(/C=C2/C(=O)Nc3ccc(F)cc32)c1 , what GI50 is on record?
Return: 4680

Enquiry: What does the data say about its GI50? Entry: CN(C)c1ccc2[nH]c(Cl)c(/C=C3/C(=O)N(C)c4cc5c(cc43)/C(=C\c3c(Cl)[nH]c4ccc(N(C)C)cc34)C(=O)N5C)c2c1
Return: 9770

Enquiry: GI50 lookup needed for O=C1Nc2ccc(Cl)cc2/C1=C\c1ccc2ccc3ccc(/C=C4/C(=O)Nc5ccc(Cl)cc54)nc3c2n1 , thanks.
Return: 2290

Enquiry: Looking for the measured GI50 of COc1cc2c(c(OC)c1OC)/C(=C\c1ccc3ccc4ccc(/C=C5/C(=O)Nc6cc(OC)c(OC)c(OC)c65)nc4c3n1)C(=O)N2 , can you help?
Return: 26300

Enquiry: Look up GI50: COc1cc2c(cc1C)NC(=O)/C2=C/c1ccc2ccc3ccc(/C=C4/C(=O)Nc5cc(C)c(OC)cc54)nc3c2n1
Return: 6310

Enquiry: Value lookup for GI50; key = CC[C@]1(O)C[C@H]2CN(CCc3c([nH]c4ccccc34)[C@@](C(=O)OC)(c3cc4c(cc3OC)N(C=O)[C@H]3[C@@](O)(C(=O)OC)[C@H](OC(C)=O)[C@]5(CC)C=CCN6CC[C@]43[C@@H]65)C2)C1 [VINCRISTINE]
Return: 320

Enquiry: Name the reported GI50 value associated with the molecule O=C1Nc2cccc(F)c2/C1=C\c1cccc(/C=C2/C(=O)Nc3cccc(F)c32)c1
Return: 1860

Enquiry: Item under review: COc1ccc2[nH]c(Cl)c(/C=C3/C(=O)N(C)c4cc5c(cc43)/C(=C\c3c(Cl)[nH]c4ccc(OC)cc34)C(=O)N5C)c2c1 . Reported GI50?
Return: 1780

Enquiry: I am curious: what GI50 value has been reported for O=C1Nc2ccc(F)cc2/C1=C\c1cccc(/C=C2/C(=O)Nc3ccc(F)cc32)c1 ?
Return: 1580

Enquiry: What measured GI50 goes with COc1cc2c(c(OC)c1OC)C(=Cc1cc(C(C)(C)C)cc(/C=C3\C(=O)Nc4cc(OC)c(OC)c(OC)c43)c1O)C(=O)N2 ?
Return: 2190

Enquiry: Consider the molecule shown here: COc1ccc(OC)c2c1NC(=O)/C2=C/c1cccc(/C=C2/C(=O)Nc3c(OC)ccc(OC)c32)c1 What is its recorded GI50?
Return: 7080

====

Kindly supply the reported CC50 values for the records listed here.
Test summary: Cytotoxicity against human Leukemia cancer cells incubated for 48 hrs by SRB assay
Assay type: functional
Cond: Leukemia cell, read-out: LC50 (the source's name)
Note: unit µM is implicit; provide only the numeric part.

Enquiry: Given the entry COc1ccc2c(c1)/C(=C\c1cc(C(C)(C)C)cc(/C=C3/C(=O)N(C)c4ccc(OC)cc43)c1O)C(=O)N2C , report its measured CC50.
Return: 100

Enquiry: Recorded CC50 for O=C1Nc2cccc(F)c2/C1=C\c1cccc(/C=C2/C(=O)Nc3cccc(F)c32)c1 , please?
Return: 100

Enquiry: Which measured CC50 value corresponds to O=C1Nc2cc(Cl)ccc2/C1=C\c1cccc(/C=C2/C(=O)Nc3cc(Cl)ccc32)c1 ?
Return: 100

Enquiry: Entry CC(C)(C)c1cc(/C=C2/C(=O)Nc3ccc(F)cc32)c(O)c(/C=C2/C(=O)Nc3ccc(F)cc32)c1 : reported CC50 = ?
Return: 60.3

Enquiry: I'd like to know its CC50. The molecule in question is O=C1Nc2ccc(F)cc2/C1=C\c1cccc(/C=C2/C(=O)Nc3ccc(F)cc32)c1
Return: 7.41

Enquiry: Returns the measured CC50 for the input molecule. Input: COc1cc2c(/C=C3/C(=O)N(C)c4cc5c(cc43)/C(=C\c3c(Cl)[nH]c4cc(C)c(OC)cc34)C(=O)N5C)c(Cl)[nH]c2cc1C
Return: 42.7

Enquiry: Fill blank: measured CC50 of the molecule COc1cc2c(c(OC)c1OC)C(=Cc1cc(C(C)(C)C)cc(/C=C3\C(=O)Nc4cc(OC)c(OC)c(OC)c43)c1O)C(=O)N2 is ____.
Return: 60.3

====

Tested on: Melanoma cell line
Test summary: Cell growth inhibition of human Melanoma cells incubated for 48 hrs by SRB assay
Type: functional
Lab note: compare GI with 2 µM, writing 1.0 if less and 0.0 if equal or more.

Enquiry: Lab note: confirm whether the reported GI for this compound is below 2 µM, equality not counting. compound: COc1cc2c(c(OC)c1OC)C(=Cc1cc(C(C)(C)C)cc(/C=C3\C(=O)Nc4cc(OC)c(OC)c(OC)c43)c1O)C(=O)N2
Return: 1.0

Enquiry: In plain terms, does CC(C)(C)c1cc(/C=C2/C(=O)Nc3cc(Cl)ccc32)c(O)c(/C=C2/C(=O)Nc3cc(Cl)ccc32)c1 come in under 2 µM for GI?
Return: 0.0

Enquiry: Problem: For the compound COc1cc2c(cc1C)NC(=O)/C2=C/c1ccc2ccc3ccc(/C=C4/C(=O)Nc5cc(C)c(OC)cc54)nc3c2n1 , is GI under 2 µM?
Return: 0.0

Enquiry: Criterion: GI strictly below 2 µM. Is it met by Cc1cc2c(cc1O)/C(=C\c1cc(C(C)(C)C)cc(C=O)c1O)C(=O)N2 ?
Return: 1.0

Enquiry: In the record for COc1ccc2c(c1)/C(=C\c1ccc3ccc4ccc(/C=C5/C(=O)N(C)c6ccc(OC)cc65)nc4c3n1)C(=O)N2C , is GI less than 2 µM?
Return: 0.0

Enquiry: Decide: GI of COc1ccc2c(c1)/C(=C\c1cc(C(C)(C)C)cc(/C=C3/C(=O)N(C)c4ccc(OC)cc43)c1O)C(=O)N2C strictly below 2 µM?
Return: 1.0

Enquiry: Is GI of COc1cc2c(/C=C3/C(=O)N(C)c4cc5c(cc43)/C(=C\c3c(Cl)[nH]c4cc(C)c(OC)cc34)C(=O)N5C)c(Cl)[nH]c2cc1C strictly below 2 µM?
Return: 0.0

Enquiry: Dear colleague, could you confirm whether GI of CN(C)c1ccc2[nH]c(Cl)c(/C=C3/C(=O)N(C)c4cc5c(cc43)/C(=C\c3c(Cl)[nH]c4ccc(N(C)C)cc34)C(=O)N5C)c2c1 falls below 2 µM? Thanks.
Return: 0.0

Enquiry: Decide: GI of CC(C)(C)c1cc(/C=C2/C(=O)Nc3cccc(F)c32)c(O)c(/C=C2/C(=O)Nc3cccc(F)c32)c1 strictly below 2 µM?
Return: 0.0

Enquiry: Strictly below 2 µM in GI? O=C1Nc2ccc(F)cc2/C1=C\c1cccc(/C=C2/C(=O)Nc3ccc(F)cc32)c1
Return: 1.0

====

System: Panel NCI-60 (60 carcinoma cell lines)
Test summary: Cell growth inhibition of human Panel NCI-60 (60 carcinoma cell lines) incubated for 48 hrs by SRB assay
Type: functional
Observation type: GI50 (nM)
Write the number in nM without appending the unit.

Enquiry: Which GI50 value is on record for COc1cc2c(c(OC)c1OC)/C(=C\c1ccc3ccc4ccc(/C=C5/C(=O)Nc6cc(OC)c(OC)c(OC)c65)nc4c3n1)C(=O)N2 ?
Return: 12900

Enquiry: Suppose we examine the compound COc1cc2c(/C=C3/C(=O)N(C)c4cc5c(cc43)/C(=C\c3c(Cl)[nH]c4cc(C)c(OC)cc34)C(=O)N5C)c(Cl)[nH]c2cc1C ; what GI50 value has been reported?
Return: 2040

Enquiry: # input compound: COc1ccc2c(c1)/C(=C\c1ccc3ccc4ccc(/C=C5/C(=O)N(C)c6ccc(OC)cc65)nc4c3n1)C(=O)N2C ; wanted: its GI50
Return: 2630
